So I've got a bunch of compounds here, and I need their cell viability values.
system: Vero E6; experiment: cell viability relative to DMSO; higher = less toxic; conditions: 72 h; 100 nM
One number for each entry, in %.

Answered examples (2):
O=C1[C@H]2CCCC[C@H]2C(=O)N1CCCCN1CCN(c2nsc3ccccc23)CC1 [perospirone]; 102
CN(C)C[C@H](O)Cn1c2ccc(Br)cc2c2cc(Br)ccc21 (racemic) [wiskostatin]; 106

Req: Provide measured cell viability value, entry: CCCNCC(O)COc1ccccc1C(=O)CCc1ccccc1 (stereo not drawn) [propafenone]
Resp: 106

###

test system: Vero E6; experiment: cell viability relative to DMSO; higher = less toxic; settings: 72 h; 1000 nM
parameter-measured: cell viability (%)
Give bare numbers, in %.

For orientation, consider the following solved cases.
Cn1c(=O)c2c(ncn2CC(=O)O)n(C)c1=O; 105
CC[C@@H](CO)NCCN[C@@H](CC)CO; 99.1
NC1=NC(=O)N([C@H]2C[C@H](O)[C@@H](CO)O2)CN1; 92.1
CC(=O)OCC(=O)[C@H]1CC[C@H]2[C@@H]3CC[C@H]4C[C@H](O)CC[C@]4(C)[C@H]3C(=O)C[C@]12C [alfadolone-acetate]; 104
CCCCCOc1ccc(-c2cc(-c3ccc(C(=O)N[C@H]4C[C@@H](O)[C@@H](O)NC(=O)[C@@H]5[C@@H](O)[C@@H](C)CN5C(=O)[C@H]([C@H](O)CC(N)=O)NC(=O)[C@H]([C@H](O)[C@@H](O)c5ccc(O)c(OS(=O)(=O)O)c5)NC(=O)[C@@H]5C[C@@H](O)CN5C(=O)[C@H]([C@@H](C)O)NC4=O)cc3)no2)cc1; 97.2
Cn1c(=O)cc(N2CCC[C@@H](N)C2)n(Cc2cc(F)ccc2C#N)c1=O; 103
NC(=O)CCCCC1CCSS1 (configuration not stated) [lipoamide]; 106
Cc1nc(C#Cc2ccnc(Cl)c2)c(C)n1-c1ccc(F)cc1; 102

Hi there! I need cell viability for each item below, if you can.
1. CC(C(=O)O)c1ccc2c(c1)Cc1ccccc1-2 (configuration not stated)
2. CC(C)C(=O)OC[C@@]1(N=[N+]=[N-])O[C@@H](n2ccc(N)nc2=O)[C@H](OC(=O)C(C)C)[C@@H]1OC(=O)C(C)C
3. CN1CCN(CCCN2c3ccccc3Sc3ccc(C(F)(F)F)cc32)CC1
4. Cc1cc(Nc2cc(C)c(C#N)c(N[C@@H](C)CCCC(C)(C)O)n2)n[nH]1
5. C=CCNc1nc(NCC=C)nc(N2CCN(C(c3ccc(F)cc3)c3ccc(F)cc3)CC2)n1
6. O=C(NCCCNc1nc(Nc2cccc(NC(=O)N3CCCC3)c2)ncc1I)c1cccs1
7. Cc1cnc(C(=O)O)c[n+]1[O-]

Resp:
93.8
98.4
88.7
75.7
95.4
101
95.7

Value sought for every listed molecule: cell viability.
1. CC(=O)Nc1ccc(O)cc1
2. CC(CN1c2ccccc2Sc2ccccc21)N(C)C (configuration not stated)

Resp:
[92.5, 102]

src = the supplement of paper PMC13380429
